- Assay procedure: AUC in Balb/C mouse at 0.5 mg/kg, iv and 2 mg/kg, ip
- Assay type: ADME, organism-based
- Run conditions: plasma
Readout name: AUC
Reply with a number, then the unit it belongs to.

Smiles notation	Readout name	Reading
COc1c(C)c(OC)c2c(c1O)[C@@H]1[C@@H]3Cc4c(OC)c(C)c(OC)c(O)c4[C@H](CNC(=O)c4cc5cc(OC6CCOCC6)ccc5o4)N3[C@@H](C#N)[C@H](C2)N1C	AUC	0.483 µM·h

Challenge: // returns reported AUC for input COc1c(C)c(OC)c2c(c1O)[C@@H]1[C@@H]3Cc4c(OC)c(C)c(OC)c(O)c4[C@H](CNC(=O)c4ccc5ccccc5n4)N3[C@@H](C#N)[C@H](C2)N1C
Response given: 0.167 µM·h
